# credit: the Immune Epitope Database (IEDB)

molecular target: HLA-A*02:01; test: IEDB peptide-MHC binding, purified MHC/direct/fluorescence; filed as Kd, often an IC50 or EC50 that approximates it; bounds were set here for any values at or beyond the usual limits of such assays; details: source organism: Treponema pallidum
Property: Kd (µM)
Provide only the numeric value, understood in µM.

Exam item: Dear colleague, I am looking for the recorded Kd of the following sequence: "IVDYVTAYG"
Marked response: 17.3

---

biological target: HLA-A*02:12; experiment: IEDB peptide-MHC binding, purified MHC/competitive/fluorescence; filed as Kd, often an IC50 or EC50 that approximates it; bounds were set here for any values at or beyond the usual limits of such assays; conditions: source organism: Vibrio parahaemolyticus RIMD 2210633
Property: Kd

Exam item: What Kd value was documented for this sequence, "GTVPTDNPF" ?
Marked response: ≥ 20 µM
